# SYSTEM UNDER TEST: T1, TPOR/4Rα hybrid receptor (fusion of the hTPOR extracellular domain and the intracellular 4Rα domain from … (human, UniProt P40238 26-491; P24394 257-825, limits assumed)
# T1 sequence (looked up): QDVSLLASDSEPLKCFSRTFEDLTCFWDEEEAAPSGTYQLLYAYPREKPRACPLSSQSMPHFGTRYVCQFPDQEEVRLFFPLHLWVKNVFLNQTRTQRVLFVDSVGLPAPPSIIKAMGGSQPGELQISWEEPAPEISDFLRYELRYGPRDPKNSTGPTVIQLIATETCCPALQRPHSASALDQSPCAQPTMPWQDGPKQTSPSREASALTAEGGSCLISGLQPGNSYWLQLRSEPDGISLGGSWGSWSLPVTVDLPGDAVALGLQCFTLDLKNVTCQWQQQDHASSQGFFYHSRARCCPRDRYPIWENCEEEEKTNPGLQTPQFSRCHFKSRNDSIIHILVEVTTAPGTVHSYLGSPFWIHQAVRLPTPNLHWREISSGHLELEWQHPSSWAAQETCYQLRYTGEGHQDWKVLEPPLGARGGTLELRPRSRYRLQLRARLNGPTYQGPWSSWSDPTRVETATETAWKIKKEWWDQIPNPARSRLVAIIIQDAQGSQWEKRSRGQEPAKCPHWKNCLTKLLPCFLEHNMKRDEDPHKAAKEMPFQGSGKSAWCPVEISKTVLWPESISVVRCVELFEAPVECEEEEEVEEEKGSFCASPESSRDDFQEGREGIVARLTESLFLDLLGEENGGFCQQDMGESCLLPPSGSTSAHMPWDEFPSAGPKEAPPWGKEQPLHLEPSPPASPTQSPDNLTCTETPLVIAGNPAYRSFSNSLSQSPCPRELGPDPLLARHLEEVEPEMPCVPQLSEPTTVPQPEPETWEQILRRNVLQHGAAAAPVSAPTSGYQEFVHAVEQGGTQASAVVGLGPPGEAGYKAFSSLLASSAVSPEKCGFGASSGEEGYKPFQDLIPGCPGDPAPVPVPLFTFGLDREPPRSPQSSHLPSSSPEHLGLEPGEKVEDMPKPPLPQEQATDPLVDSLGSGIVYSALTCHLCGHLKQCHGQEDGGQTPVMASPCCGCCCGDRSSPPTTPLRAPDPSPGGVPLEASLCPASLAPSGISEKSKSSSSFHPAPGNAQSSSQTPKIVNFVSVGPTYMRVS
# TEST DETAILS: cell-based or functional assay
Ends that are not written are not given here.
Each record here notes measured Agonist EC50[nM] (Ba/F3 luciferase reporter assay).
I only need the number, in nM, no unit after it.

Worked set:
[[record]]
binder = "GCIEGPTLRQWLAACKQDSDCLAGCVCGPNGFCGS (designed binder, cysteine pairing not given here; also: DSS-crosslinked dimer, crosslink site not given here) [dimeric SE-ET-TP-030 (DSS-crosslinked dimer)]"
reported_value = 2.5

[[record]]
binder = "GCIEGPTLRQWLAARACKQDSDCLAGCVCGPNGFCGS (designed binder, cysteine pairing not given here; also: DSS-crosslinked dimer, crosslink site not given here) [dimeric SE-ET-TP-020 (DSS-crosslinked dimer)]"
reported_value = 1.4


# next binder below
# Agonist EC50[nM] (Ba/F3 luciferase reporter assay) (binder: GCVRLHESCLGQQVPCCDPAATCGGTCLAIEGPTLRQWLCARACKGS (designed binder, cysteine pairing not given here; also: dimer crosslinked by DSS, site of crosslink not given here) [dimeric SE-AG-TP-050 (DSS-crosslinked dimer)] ) is 2.5

# credit: patent US20090156476A1
